# tgt: HCK (Homo sapiens)
# Sequence (P08631 whole entry): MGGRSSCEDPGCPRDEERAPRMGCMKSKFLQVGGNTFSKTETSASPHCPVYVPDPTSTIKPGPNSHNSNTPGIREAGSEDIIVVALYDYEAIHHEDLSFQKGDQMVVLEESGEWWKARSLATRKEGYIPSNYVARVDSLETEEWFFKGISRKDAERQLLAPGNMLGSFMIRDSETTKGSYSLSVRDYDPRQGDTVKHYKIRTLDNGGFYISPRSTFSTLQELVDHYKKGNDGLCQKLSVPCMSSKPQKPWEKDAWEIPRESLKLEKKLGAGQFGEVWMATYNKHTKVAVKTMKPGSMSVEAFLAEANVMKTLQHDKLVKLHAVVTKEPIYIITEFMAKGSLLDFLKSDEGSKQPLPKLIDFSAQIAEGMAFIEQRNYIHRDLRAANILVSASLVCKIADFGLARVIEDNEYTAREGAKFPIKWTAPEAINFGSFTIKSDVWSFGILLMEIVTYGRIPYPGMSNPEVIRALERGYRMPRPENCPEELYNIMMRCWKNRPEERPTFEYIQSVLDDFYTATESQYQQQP
# protocol summary: biochemical
# Design: species or system HEK293/K-562/placenta mixed human extract; Kinobeads chemoproteomic competition binding, quantified by TMT LC-MS/MS, dose response up to 20 uM
measured metric: IC50

# molecule `COc1ccccc1-c1n[nH]c2nc(N[C@H]3CC[C@H](NS(=O)(=O)CCC(F)(F)F)CC3)nc(OC)c12` ; its IC50 = ≥ 20 µM

====

# tgt: NLK (Homo sapiens)
# Sequence (Q9UBE8 whole entry): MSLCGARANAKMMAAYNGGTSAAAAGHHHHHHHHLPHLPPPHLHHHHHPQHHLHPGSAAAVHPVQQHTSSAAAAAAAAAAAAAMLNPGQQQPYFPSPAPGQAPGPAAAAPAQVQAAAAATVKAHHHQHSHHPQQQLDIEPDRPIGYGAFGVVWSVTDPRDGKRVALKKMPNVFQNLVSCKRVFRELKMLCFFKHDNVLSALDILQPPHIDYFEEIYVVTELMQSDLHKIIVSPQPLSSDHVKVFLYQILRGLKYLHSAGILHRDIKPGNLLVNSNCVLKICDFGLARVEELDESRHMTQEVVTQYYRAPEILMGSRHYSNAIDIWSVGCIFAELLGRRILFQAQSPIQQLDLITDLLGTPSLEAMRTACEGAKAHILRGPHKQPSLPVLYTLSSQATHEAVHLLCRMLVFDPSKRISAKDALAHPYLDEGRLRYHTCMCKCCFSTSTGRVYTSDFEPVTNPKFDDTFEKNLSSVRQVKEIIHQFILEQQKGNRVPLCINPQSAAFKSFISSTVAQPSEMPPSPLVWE
# protocol summary: biochemical
# Parameters: species or system HEK293/K-562/placenta mixed human extract; Kinobeads chemoproteomic competition binding, quantified by TMT LC-MS/MS, dose response up to 20 uM
measured metric: pIC50
Hey, just a heads up that pIC50 is the negative log base 10 of the concentration in molar.

# compound `COc1ccccc1-c1n[nH]c2nc(N[C@H]3CC[C@H](NS(=O)(=O)CCC(F)(F)F)CC3)nc(OC)c12` ; its pIC50 = 5.47

====

# tgt: MARK4 (Homo sapiens)
# Sequence (Q96L34 whole entry): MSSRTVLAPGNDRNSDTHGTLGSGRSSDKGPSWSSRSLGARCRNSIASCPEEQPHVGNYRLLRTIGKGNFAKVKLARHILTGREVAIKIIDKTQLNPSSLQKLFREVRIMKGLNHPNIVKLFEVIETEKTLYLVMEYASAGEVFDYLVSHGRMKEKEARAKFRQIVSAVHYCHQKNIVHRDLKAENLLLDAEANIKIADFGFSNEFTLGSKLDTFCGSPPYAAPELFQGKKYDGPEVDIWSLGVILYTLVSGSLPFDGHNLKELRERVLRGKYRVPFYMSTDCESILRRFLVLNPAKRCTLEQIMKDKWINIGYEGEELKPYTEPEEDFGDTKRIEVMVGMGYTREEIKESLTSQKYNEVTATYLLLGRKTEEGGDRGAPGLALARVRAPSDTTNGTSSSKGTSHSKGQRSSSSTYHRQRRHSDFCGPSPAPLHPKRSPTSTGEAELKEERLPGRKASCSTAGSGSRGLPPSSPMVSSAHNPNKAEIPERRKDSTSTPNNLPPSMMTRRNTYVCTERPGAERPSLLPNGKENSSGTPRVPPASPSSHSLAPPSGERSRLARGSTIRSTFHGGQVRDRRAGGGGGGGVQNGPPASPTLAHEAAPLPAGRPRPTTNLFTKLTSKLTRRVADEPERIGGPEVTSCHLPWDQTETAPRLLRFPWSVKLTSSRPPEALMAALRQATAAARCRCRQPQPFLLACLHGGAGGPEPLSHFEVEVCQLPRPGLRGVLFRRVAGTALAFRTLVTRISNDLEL
# protocol summary: biochemical
# Parameters: species or system HEK293/K-562/placenta mixed human extract; Kinobeads chemoproteomic competition binding, quantified by TMT LC-MS/MS, dose response up to 20 uM
measured metric: IC50

# compound `COc1nc(N[C@H]2CC[C@H](NS(=O)(=O)CC(C)C)CC2)nc2[nH]nc(N3CCOC[C@H]3C)c12` ; its IC50 = ≥ 20 µM

====

# tgt: UniProtKB Q15139
# Sequence (Q15139 1-912): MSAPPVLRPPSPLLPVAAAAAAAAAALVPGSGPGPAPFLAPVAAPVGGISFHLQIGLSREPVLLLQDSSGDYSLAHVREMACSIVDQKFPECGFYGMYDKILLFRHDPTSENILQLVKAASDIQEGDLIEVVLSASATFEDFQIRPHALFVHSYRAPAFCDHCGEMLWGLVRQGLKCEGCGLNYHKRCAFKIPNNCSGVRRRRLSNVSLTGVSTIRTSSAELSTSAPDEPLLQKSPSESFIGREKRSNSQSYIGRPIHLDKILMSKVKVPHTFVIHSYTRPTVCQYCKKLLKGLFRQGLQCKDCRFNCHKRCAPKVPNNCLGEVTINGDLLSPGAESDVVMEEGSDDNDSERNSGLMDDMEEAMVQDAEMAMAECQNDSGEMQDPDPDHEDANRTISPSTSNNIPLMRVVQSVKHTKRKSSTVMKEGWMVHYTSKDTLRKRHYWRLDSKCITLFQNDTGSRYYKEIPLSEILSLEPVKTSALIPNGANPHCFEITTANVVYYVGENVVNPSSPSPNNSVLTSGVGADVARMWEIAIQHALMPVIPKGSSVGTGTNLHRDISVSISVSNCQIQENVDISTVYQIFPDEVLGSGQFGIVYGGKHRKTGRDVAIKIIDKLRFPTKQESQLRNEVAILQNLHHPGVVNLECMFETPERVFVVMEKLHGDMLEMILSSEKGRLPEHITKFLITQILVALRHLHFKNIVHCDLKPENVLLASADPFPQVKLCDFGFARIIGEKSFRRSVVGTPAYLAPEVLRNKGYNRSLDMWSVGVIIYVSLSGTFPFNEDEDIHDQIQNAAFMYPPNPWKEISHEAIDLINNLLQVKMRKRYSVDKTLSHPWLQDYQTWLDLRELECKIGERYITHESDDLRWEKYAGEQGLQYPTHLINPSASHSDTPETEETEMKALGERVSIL
# protocol summary: biochemical
# Design: species or system HEK293/K-562/placenta mixed human extract; Kinobeads chemoproteomic competition binding, quantified by TMT LC-MS/MS, dose response up to 20 uM
measured metric: IC50

# compound `COc1ccccc1-c1n[nH]c2nc(N[C@H]3CC[C@H](NS(=O)(=O)CCC(F)(F)F)CC3)nc(OC)c12` ; its IC50 = ≥ 20 µM

Provenance of the data: paper PMC6407917
